- Test system: airway hyper-responsiveness induced by peroxynitrite
- assay-name: Airway hyper-responsiveness model induced by exposure of peroxynitrite in guinea pigs (lung resistance after histamine)
- Assay type: in vivo
- conditions: 30 mg/kg orally one hour before peroxynitrite, histamine 32 μg/kg i.v. on 5-day, control group 759, non-stimulation group 382
readout-label: Increase in lung resistance (%)
Express your answer in %, writing the number without its unit.

compound	unit-tag	Increase in lung resistance (%)
CCCCCCOc1c(O)c(=O)n(C)c2cc(NC(=O)C=Cc3cc(OC)c(O)c(OC)c3)ccc12 [Compound 556]	%	426
C=CCOc1c(O)c2ccc(N)cc2n(C)c1=O [Compound 56]	%	434
CCCCCCOc1c(O)c2ccc(N)cc2n(C)c1=O [Compound 53]	%	440

Next compound, Increase in lung resistance (%) to be filled in.
Qu. With airway hyper-responsiveness induced by peroxynitrite as the test system, provide measured Increase in lung resistance (%) for this compound: CCCCCCn1c(=O)c(OC)c(O)c2ccc(NCC)cc21 [Compound 330]
Ans. 417
